protocol details: MTT assay on MCA205 cell line
Type: cell-based, mouse
run conditions: mouse, MCA205 sarcoma cells; MCA205, 6.25 μM, MTT; read-out: % cell viability (±SEM)
endpoint: viability at 6.25 µM (%)
Note: unit % is implicit; provide only the numeric part.

Q: Give a short answer stating reported viability at 6.25 µM for COc1ccc(-c2cc(=O)c3c(O)cc(O)c(-c4cc(-c5cc(=O)c6c(O)cc(O)cc6o5)ccc4OC)c3o2)cc1 [Isoginkgetin, isoginkgetin] .
Result: 84.8

====

protocol details: MTT viability, human cells (text summary of table 1)
Format: cell-based
run conditions: concentrations used (2.5 and 6.25 μM), A375, A549, MRC5, read-out: viability of human cells upon treatment
endpoint: viability

Q: Give a short answer stating reported viability for COc1ccc(-c2cc(=O)c3c(O)cc(O)c(-c4cc(-c5cc(=O)c6c(O)cc(O)cc6o5)ccc4OC)c3o2)cc1 .
Result: > 80%

====

protocol details: MTT assay on A549 cell line
Assay type: cell-based
run conditions: human, A549 lung carcinoma cells, A549, 6.25 μM, read-out: % cell viability (±SEM)
endpoint: viability at 6.25 µM

Q: Give a short answer stating reported viability at 6.25 µM for COc1ccc(-c2cc(=O)c3c(O)cc(O)c(-c4cc(-c5cc(=O)c6c(O)cc(O)cc6o5)ccc4OC)c3o2)cc1 .
Result: 84%

====

protocol details: MTT assay on MCA205 cell line
Type: cell-based, mouse
run conditions: mouse, MCA205 sarcoma cells; MCA205, 15 μM, MTT; read-out: % cell viability (±SEM)
Protocol: RNA was extracted and qRT-PCR was performed with primers amplifying the unspliced (intron) and the spliced (exon) globin-SL8-intron RNA. Data are given as mean ±SEM of the ratio of 2^−ΔΔCt intron and 2^−ΔΔCt exon of at least three independent experiments. […] Data are express as mean ±SEM of the percentage of viable cells compared to the control condition of at least three independent experiments. *P<0.05, **P<0.01, ***P<0.001 (unpaired student t test). […]
endpoint: viability at 15 µM (%)
Note: unit % is implicit; provide only the numeric part.

Q: Give a short answer stating reported viability at 15 µM for COc1ccc(-c2cc(=O)c3c(O)cc(O)c(-c4cc(-c5cc(=O)c6c(O)cc(O)cc6o5)ccc4OC)c3o2)cc1 [Isoginkgetin, isoginkgetin] .
Result: 56.3

====

protocol details: MTT assay on A375 cell line
Type: cell-based
run conditions: human, A375 melanoma cells, A375, 6.25 μM, read-out: % cell viability (±SEM)
endpoint: viability at 6.25 µM (%)
Note: unit % is implicit; provide only the numeric part.

Q: Give a short answer stating reported viability at 6.25 µM for COc1ccc(-c2cc(=O)c3c(O)cc(O)c(-c4cc(-c5cc(=O)c6c(O)cc(O)cc6o5)ccc4OC)c3o2)cc1 .
Result: 100

====

protocol details: MTT assay on A549 cell line
Format: cell-based
run conditions: human, A549 lung carcinoma cells, A549, 2.5 μM, read-out: % cell viability (±SEM)
endpoint: viability at 2.5 µM (%)
Note: unit % is implicit; provide only the numeric part.

Q: Give a short answer stating reported viability at 2.5 µM for COc1ccc(-c2cc(=O)c3c(O)cc(O)c(-c4cc(-c5cc(=O)c6c(O)cc(O)cc6o5)ccc4OC)c3o2)cc1 .
Result: 100

====

protocol details: MTT assay on A375 cell line
Type: cell-based
run conditions: human, A375 melanoma cells, A375, 2.5 μM, read-out: % cell viability (±SEM)
endpoint: viability at 2.5 µM (%)
Note: unit % is implicit; provide only the numeric part.

Q: Give a short answer stating reported viability at 2.5 µM for COc1ccc(-c2cc(=O)c3c(O)cc(O)c(-c4cc(-c5cc(=O)c6c(O)cc(O)cc6o5)ccc4OC)c3o2)cc1 .
Result: 100

====

protocol details: MTT assay on MRC5 cell line
Type: cell-based
run conditions: human, MRC5 fibroblast cells, MRC5, 6.25 μM, read-out: % cell viability (±SEM)
endpoint: viability at 6.25 µM

Q: Give a short answer stating reported viability at 6.25 µM for COc1ccc(-c2cc(=O)c3c(O)cc(O)c(-c4cc(-c5cc(=O)c6c(O)cc(O)cc6o5)ccc4OC)c3o2)cc1 .
Result: 100%

====

protocol details: MTT assay on MRC5 cell line
Assay type: cell-based
run conditions: human, MRC5 fibroblast cells, MRC5, 2.5 μM, read-out: % cell viability (±SEM)
endpoint: viability at 2.5 µM

Q: Give a short answer stating reported viability at 2.5 µM for COc1ccc(-c2cc(=O)c3c(O)cc(O)c(-c4cc(-c5cc(=O)c6c(O)cc(O)cc6o5)ccc4OC)c3o2)cc1 [Isoginkgetin, isoginkgetin] .
Result: 100%

====

protocol details: MTT assay on MCA205 cell line
Format: cell-based, mouse
run conditions: mouse, MCA205 sarcoma cells; MCA205, 25 μM, MTT; read-out: % cell viability (±SEM)
endpoint: viability at 25 µM (%)
Note: unit % is implicit; provide only the numeric part.

Q: Give a short answer stating reported viability at 25 µM for COc1ccc(-c2cc(=O)c3c(O)cc(O)c(-c4cc(-c5cc(=O)c6c(O)cc(O)cc6o5)ccc4OC)c3o2)cc1 [Isoginkgetin, isoginkgetin] .
Result: 51.7
